- Test system: BL-41
- METHOD NOTES: Induction of apoptosis in CD40-positive human BL41 cells assessed as detection of phosphatidylserine expression using annexin V-FITC and propidium iodine staining by flow cytometry
- Format: functional, cell-based
Activity calls are given as the source filed them. No cut-off for these calls is given here. Non-standard residues stand in square brackets, D forms with d. Residues, ends and D or L forms follow the SMILES beside them. Ahx = NCCCCCC(=O)O
Mark one answer only. Choices: active, inactive

Fill in: this test's call for "NCCCC[C@H](N)C(=O)NCC(=O)N[C@@H](Cc1ccc(O)cc1)C(=O)N[C@@H](Cc1ccc(O)cc1)C(=O)NCCCCCC(=O)NCCCC[C@@H]1CNC(=O)C[C@H](CCCCNC(=O)CCCCCNC(=O)[C@H](Cc2ccc(O)cc2)NC(=O)[C@H](Cc2ccc(O)cc2)NC(=O)CNC(=O)[C@@H](N)CCCCN)NC[C@H](CCCCNC(=O)CCCCCNC(=O)[C@H](Cc2ccc(O)cc2)NC(=O)[C@H](Cc2ccc(O)cc2)NC(=O)CNC(=O)[C@@H](N)CCCCN)NC(=O)C1" is ___
active

Fill in: this test's call for "NCCCC[C@H](N)C(=O)NCC(=O)N[C@@H](Cc1ccc(O)cc1)C(=O)N[C@@H](Cc1ccc(O)cc1)C(=O)NCCCCCC(=O)NCCCOCC(COCCCNC(=O)CCCCCNC(=O)[C@H](Cc1ccc(O)cc1)NC(=O)[C@H](Cc1ccc(O)cc1)NC(=O)CNC(=O)[C@@H](N)CCCCN)(COCCCNC(=O)CCCCCNC(=O)[C@H](Cc1ccc(O)cc1)NC(=O)[C@H](Cc1ccc(O)cc1)NC(=O)CNC(=O)[C@@H](N)CCCCN)NC(=O)CCC(N)=O" is ___
inactive

Fill in: this test's call for NCCCC[C@H](N)C(=O)NCC(=O)N[C@@H](Cc1ccc(O)cc1)C(=O)N[C@@H](Cc1ccc(O)cc1)C(=O)NCCCCCC(=O)O (H-KGYY[Ahx]-OH) is ___
inactive

Fill in: this test's call for "C[C@H]1NC(=O)[C@H](CCCCN)NC(=O)[C@@H](C)NC(=O)[C@H](CCCCN)NC(=O)[C@@H](C)NC(=O)[C@H](CCCCN)NC1=O" is ___
inactive
